target: T1, YU-2 gp140 (HIV-1 YU2, UniProt P35961 32-670); assay: SPR, gp140 on chip, IgG injected
T1 construct: domain: gp140; also called YU2 gp140 trimer
As shown below, each of these binders has a reported koff value.
Entry rule: numbers only, all in s⁻¹.

Lab note: measured koff of 3BNC66 (antibody, V domains shown, also called 3BNC66HC; 3bnc66kc) VH: QVQLVQSGAALKKPGASLRISCQTYGYKFTDHLIYWWRQAPGQGLEWIGWIKPETGQPSYSYRFQGRVSLTRDTFEEIAFMDLRGLRSDDTAIYFCARRHTDYCVFDVWGSGSQIIVSS VL: DIQMTQSPSSLSASVGDTVTITCQTNKGYLNWYQQRRGRAPKLLMYDGSKLVTGVPSRLSGRRWGTQYNLTIGSLQPEDIATYYCQVYEFFGPGTRLDLKR was 0.00141

Looking up 1NC9 (antibody, V domains shown, also called LSSNEC9HC; LSSNEC9LC) VH: QVRLVQSGAQLKKPGASVTVSCEASGYNFVNYIINWVRQTPGRSFEWVGMIDPRRGRPWSAQKFQGRLTLTRDIDSEKLYMHLSGLRGDDTAVYYCARQDSDFHDGHGHTLRGMFDSWGQGSPVTVSS VL: QVLSVSGTPGQRVIISCSGTSSNVGGNLVSWYQHLPGAAPRLLIHRDDQRPSGVPDRFSGSKSGNSASLVISGLRSDDEADYFCAAYDSTFSLPVFGGGTRLTVLS , I found its koff recorded as 0.000581

Sample 12A12 (antibody, V domains shown, also called 12A12HC; 12a12kc) VH: SQQLVQSGTQVKKPGASVRISCQASGYSFTDYVLHWWRQAPGQGLEWMGWIKPVYGARNYARRFQGRINFDRDIYREIAFMDLSGLRSDDTALYFCARDGSGDDTSWHLDPWGQGTLVIVSA VL: DIQMTQSPSSLSASVGDRVTITCQAGQGIGSSLQWYQQKPGKAPKLLVHGASNLHRGVPSRFSGSGFHTTFSLTISGLQRDDFATYFCAVLEFFGPGTKVEIKR ; koff observed: 1.44e-05

8ANC134 (antibody, V domains shown, also called 8ANC134HC; 8ANC134KC) VH: QGQLVQSGGGVKKPGTSVTISCLASEYTFNEFVIHWIRQAPGQGPVWLGLIKRSGRLMTSYKFQDRLSLRRDRSTGTVFMELRGLRLDDTAVYYCARDGLGEVAPAYLYGIDAWGQGSTVIVTS VL: EIVLTQSPATLSLSPGERATLSCRASQGLNFVVWYQQKGGQAPRLLIHGPTDRAPGVPDRFSARGSGTEFSLVISSVEPDDFALYYCQEYSSTPYNFGPGTRVDRKR yielded koff of 0.00174

More entries:
Memo: NIH45-46 (antibody, V domains shown) VH: QVRLSQSGGQMKKPGESMRLSCRASGYEFLNCPINWIRLAPGRRPEWMGWLKPRGGAVNYARKFQGRVTMTRDVYSDTAFLELRSLTSDDTAVYFCTRGKYCTARDYYNWDFEH VL: EIVLTQSPATLSLSPGETAIISCRTSQSGSLAWYQQRPGQAPRLVIYSGSTRAAGIPDRFSGSRWGADYNLSISNLESGDFGVYYCQQYEFFG , reported koff: 0.000287
